Reference source: PubChem BioAssay (NCI)

# System: TK-10 renal
# assaySummary: NCI-60 one-dose screen, 48 h
# conditionsUsed: 10 µM unless noted
# Description: Growth inhibition of the TK-10 human tumor cell line is measured as a screen for anti-cancer activity. Cells are grown in 96 well plates and exposed to the test compound for 48 hours. Compounds are tested at a single concentration, which is 10^-5 M for most compounds. The reported endpoint is percent growth (GI% or GIPRCNT), where numbers from 0 - 100% represent growth inhibition, and numbers from -100% - 0 represent cell death. For example, a value of 40 represents 60% growth inhibition. […]
This is part of a sample that, as a whole, favours compounds with a hit. Of some 83,000 tested, about 20% had one in any assay. Activity calls are given as the source filed them. Rule for the calls: active = growth percent below 10; inactive = the rest.
Outcome (select one): yes for active, no for inactive

Consider the worked cases shown below.
Query: Which result was noted for this molecule in the test: `CN1CCN(c2ccc(NC3=CC(=O)c4ncncc4C3=O)cc2)CC1`
Response: yes

Query: Please state the recorded outcome for this molecule: `CC(=O)c1c(Nc2cccc(F)c2)[nH]c2c(Cl)cc(Cl)c(Cl)c2c1=O`
Response: no

Query: Outcome? `O=C(c1c[nH]c2ccccc12)c1n[nH]c(=S)n1-c1ccc([N+](=O)[O-])cc1`
Response: no

Query: Which outcome did this test record for the molecule `C/C(Cc1ccc(Cl)cc1)=C(\c1ccc(OCCN2CCCCCC2)cc1)c1ccc(OC(=O)c2ccccc2)cc1` ?
Response: no

Query: Tell me the recorded outcome of this test for `CCN(CC)CCN1C(=O)c2c(c3c4ccccc4[nH]c3c3ccc4ccccc4c23)C1=O` .
Response: yes

---
Query: Identify the outcome logged in this assay for the molecule shown: `Cc1ccc2c(c1)sc1nc(-c3c[nH]c4ccccc34)c(Nc3ccccc3)n12`
Response: no

Query: What outcome does the record of this test show for `COc1ccc2cc(C(=O)N3CCC([C@@H](C)C(=O)NCc4ccc5c(c4)OCO5)CC3)[nH]c2c1` ?
Response: no

Query: Any idea what this test logged for `CN(C)CCC(CCN(C)C)(C(=O)O)c1ccccc1` ?
Response: no

Query: Recorded test outcome, item CCCCC#Cc1c(I)n(C2OC(CO[Si](C)(C)C(C)(C)C)C3OC(C)(C)OC32)c(=O)n(C(=O)c2ccccc2)c1=O (centres undefined)
Response: yes

----------
# Test system: A549/ATCC NSCLC
# assaySummary: NCI-60 one-dose screen, 48 h (100 = growth as untreated, 0 = no growth, -100 = all killed)
# conditionsUsed: 10 µM unless noted
This is part of a sample that, as a whole, favours compounds with a hit. Of some 83,000 tested, about 20% had one in any assay.
endpoint: growth (%)
Just the number please, in %, no unit attached.

Query: # lookup: growth of `COc1ccc(CNc2ccc3nc(NC(=O)CN4CCCCCC4)sc3c2)cc1`
Response: 80.5

Query: # growth lookup, item `COC(=O)[C@]1(C)CCC[C@]2(C)[C@H]3C[C@@H]4[C@H]5[C@@H]6CC/C(=N\OCC/C(N)=N/O)[C@H]5[C@@]3(CC[C@H]21)CC4(C(C)C)O6`
Response: 71.8

Query: Returns the measured growth for the input compound. Input: `COc1ccc(-c2cc(-c3cn(-c4cccc(Cl)c4)nc3-c3ccc(OC)cc3)on2)cc1`
Response: 83

Query: Request the reported growth associated with `Cc1ccc(-c2nc(SCC(=O)N3CCN(c4cc5c(cc4F)c(=O)c(C(=O)O)cn5C4CC4)CC3)nc(Cl)c2C#N)cc1`
Response: 107

Now consider a different compound.
Query: Tell me the measured growth of CNC(=O)NCC1OC(n2cnc3c(NC(=O)Nc4ccccc4)ncnc32)C2OC(=O)CC12 (stereo not given) , please.
Response: 120
